Biological target: HLA-A*02:01
Assay: IEDB peptide-MHC binding, purified MHC/direct/fluorescence; filed as Kd, often an IC50 or EC50 that approximates it; bounds were set here for any values at or beyond the usual limits of such assays
Details: source organism: Orthomarburgvirus marburgense
reported_metric: Kd

(Q) # query: Kd of entry LEHGLYPQL
(A) ≥ 20 µM

* * *

Target: HLA-B*40:02
Experiment: IEDB peptide-MHC binding, purified MHC/competitive/radioactivity; filed as Kd, often an IC50 or EC50 that approximates it; bounds were set here for any values at or beyond the usual limits of such assays
Conditions: source organism: Mammarenavirus juninense
reported_metric: Kd

(Q) # query: Kd of entry PDVLRSDVY
(A) ≥ 77.2 µM

* * *

Molecular target: HLA-A*68:02
Experiment: IEDB peptide-MHC binding, purified MHC/competitive/radioactivity; filed as Kd, often an IC50 or EC50 that approximates it; bounds were set here for any values at or beyond the usual limits of such assays
Conditions: source organism: HIV-1 M:B_ARV2/SF2
pKd: −log10 of the molar value.
reported_metric: pKd

(Q) # query: pKd of entry FLGKIWPSYK
(A) ≤ 4.39

* * *

Target: HLA-B*51:01
Test: IEDB peptide-MHC binding, purified MHC/competitive/fluorescence; filed as Kd, often an IC50 or EC50 that approximates it; bounds were set here for any values at or beyond the usual limits of such assays
Details: source organism: Rickettsia felis URRWXCal2
reported_metric: Kd (µM)
Write the value in µM as a bare number.

(Q) # query: Kd of entry IAYESSNKI
(A) 0.196

* * *

Biological target: HLA-A*02:02
Test: IEDB peptide-MHC binding, purified MHC/competitive/radioactivity; filed as Kd, often an IC50 or EC50 that approximates it; bounds were set here for any values at or beyond the usual limits of such assays
Settings: source organism: Trypanosoma cruzi
reported_metric: Kd

(Q) # query: Kd of entry DVSRPTTVM
(A) ≥ 33.6 µM

* * *

Target: HLA-B*15:01
Experiment: IEDB peptide-MHC binding, purified MHC/competitive/fluorescence; filed as Kd, often an IC50 or EC50 that approximates it; bounds were set here for any values at or beyond the usual limits of such assays
Conditions: source organism: Variola virus
reported_metric: Kd (nM)
Write the value in nM as a bare number.

(Q) Tell me reported Kd for VYSFDESSF , tested with HLA-B*15:01.
(A) 2280

* * *

Listed sequences paired with reported pKd
Molecular target: HLA-A*30:02
Test: IEDB peptide-MHC binding, purified MHC/competitive/radioactivity; filed as Kd, often an IC50 or EC50 that approximates it; bounds were set here for any values at or beyond the usual limits of such assays
Conditions: source organism: Dengue virus 1 Brazil/97-11/1997
Reminder that pKd means the negative base-10 logarithm of the concentration expressed in mol/L.

These recorded examples may help you get a feel for the data.
ASVKKDLISY | 7.71
GTVLVQVKY | 5.29

Read the next record carefully.
(Q) # query: pKd of entry RGDLPVWLSY
(A) 5.39

* * *

Biological target: HLA-A*11:01
Assay: IEDB peptide-MHC binding, purified MHC/competitive/fluorescence; bounds were set here for any values at or beyond the usual limits of such assays
Settings: source organism: Vaccinia virus
reported_metric: IC50 (µM)
Write the value in µM as a bare number.

KGVEYNIDK | 31.6

Read the next record carefully.
(Q) # query: IC50 of entry VGVVVSTNR
(A) 21.5
